Entry source: patent US20220184008A1

tested on: NKCC1; assay: Calcium kinetic assay in primary cultures of immature hippocampal neurons; assay type: cell-based; conditions: 10 μM; immature neurons 3 DIV; Table 2
Value Type: NKCC1 Inhibition % 10 μM Neurons Calcium kinetic assay (%)
Give bare numbers, in %.

Record excerpt, results attached:
>>> measurement("COCCCCCCNc1ccc(C(=O)O)cc1S(=O)(=O)N(C)C [Compound 3.20]")
20
>>> measurement("CN(C)S(=O)(=O)c1cc(C(=O)O)ccc1NCCC(C)(C)C [Compound 3.14]")
11
>>> measurement("CCCCNc1ccc(C(=O)O)cc1S(=O)(=O)N(C)C [Compound 3.11]")
8
>>> measurement("CCCCNc1cc(Cl)c(C(=O)O)cc1S(N)(=O)=O [Compound 2.2]")
2
>>> measurement("CCCCCCNc1ccc([N+](=O)[O-])cc1S(N)(=O)=O [Compound 1.7]")
36

Items follow; give NKCC1 Inhibition % 10 μM Neurons Calcium kinetic assay for each.
1. CCCCCCNc1ccc(C(=O)O)cc1S(N)(=O)=O [Compound 2.7, 4-(hexylamino)-3-sulfamoyl-benzoic acid]
2. CN(C)S(=O)(=O)c1cc(C(=O)O)ccc1NCCCCCCCC(F)(F)F [Compound 3.17]

Result:
10
46

---

molecular target: NKCC1 (Homo sapiens, UniProt P55011); construct: expressed in transfected cells; host or cells: HEK293; test: Chloride kinetic assay (Cl-sensitive YFP) in NKCC1-transfected HEK293 cells; assay type: cell-based; details: 10 μM; NKCC1-transfected HEK293; Table 1; read-out: NKCC1 Inhibition % 10 μM HEK Chloride YFP assay
Sequence (P55011 whole entry, species assumed): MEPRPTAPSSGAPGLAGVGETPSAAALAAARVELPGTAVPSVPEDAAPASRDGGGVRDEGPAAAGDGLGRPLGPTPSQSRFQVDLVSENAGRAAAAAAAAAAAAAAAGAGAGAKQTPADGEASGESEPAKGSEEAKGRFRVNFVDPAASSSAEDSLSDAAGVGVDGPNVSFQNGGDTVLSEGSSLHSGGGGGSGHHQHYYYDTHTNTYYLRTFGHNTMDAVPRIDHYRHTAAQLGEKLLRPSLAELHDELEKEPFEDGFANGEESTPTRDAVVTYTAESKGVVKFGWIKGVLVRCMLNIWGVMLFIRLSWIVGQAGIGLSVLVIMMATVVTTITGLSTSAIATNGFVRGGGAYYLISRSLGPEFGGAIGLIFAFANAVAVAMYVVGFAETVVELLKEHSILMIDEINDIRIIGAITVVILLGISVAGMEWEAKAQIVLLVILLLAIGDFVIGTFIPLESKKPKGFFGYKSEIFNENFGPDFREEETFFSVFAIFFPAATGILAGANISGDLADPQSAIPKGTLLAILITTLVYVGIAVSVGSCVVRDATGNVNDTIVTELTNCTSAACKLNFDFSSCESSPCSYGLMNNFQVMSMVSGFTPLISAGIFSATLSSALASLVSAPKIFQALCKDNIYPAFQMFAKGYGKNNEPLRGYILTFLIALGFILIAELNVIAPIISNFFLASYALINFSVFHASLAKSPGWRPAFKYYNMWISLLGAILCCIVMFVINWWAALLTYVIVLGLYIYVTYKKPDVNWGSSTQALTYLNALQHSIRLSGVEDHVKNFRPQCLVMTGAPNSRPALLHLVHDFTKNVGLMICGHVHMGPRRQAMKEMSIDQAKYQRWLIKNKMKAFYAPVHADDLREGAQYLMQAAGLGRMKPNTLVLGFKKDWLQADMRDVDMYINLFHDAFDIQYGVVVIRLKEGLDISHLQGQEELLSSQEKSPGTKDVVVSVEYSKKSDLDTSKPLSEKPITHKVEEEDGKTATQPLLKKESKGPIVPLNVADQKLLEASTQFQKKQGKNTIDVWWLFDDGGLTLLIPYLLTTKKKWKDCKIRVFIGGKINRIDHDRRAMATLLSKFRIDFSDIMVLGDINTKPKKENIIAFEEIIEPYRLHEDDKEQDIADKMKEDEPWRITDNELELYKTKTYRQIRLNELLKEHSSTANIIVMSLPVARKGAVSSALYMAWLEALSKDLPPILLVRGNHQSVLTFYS
Is inhibition at 10 µM at least 20%? Then MET. If not, NOT MET.

Worked set:
>>> class_name("CCCCCCCCNc1ccc(C(=O)O)cc1S(N)(=O)=O")
"NOT MET"
>>> class_name("CCCCCCCCNc1ccc(C(=O)O)cc1S(=O)(=O)NC")
"NOT MET"
>>> class_name("CCCCNc1ccc([N+](=O)[O-])cc1S(N)(=O)=O")
"NOT MET"
>>> class_name("CCCCNc1cc(C(=O)O)cc(S(N)(=O)=O)c1Oc1ccccc1 [Bumetanide, reference compound]")
"MET"
>>> class_name("CCCCCCNc1cc(Cl)c(C(=O)O)cc1S(N)(=O)=O")
"NOT MET"

Query: Hi team, for CCCCNc1cc(Cl)c(C(=O)O)cc1S(N)(=O)=O , is the recorded inhibition at 10 µM at or above 20%?
Result: MET

Query: Hi team, for CCCCCCNc1ccc([N+](=O)[O-])cc1S(=O)(=O)N(C)C , is the recorded inhibition at 10 µM at or above 20%?
Result: NOT MET

Query: Hi team, for CN(C)S(=O)(=O)c1cc(C(=O)O)ccc1N1CCN(CCCCC(F)(F)F)CC1 , is the recorded inhibition at 10 µM at or above 20%?
Result: NOT MET

Query: Hi team, for CN(C)S(=O)(=O)c1cc(C(=O)O)ccc1NCCCCCC(F)(F)F , is the recorded inhibition at 10 µM at or above 20%?
Result: NOT MET

Query: Hi team, for O=C(O)c1ccc(NCCCCCCCC(F)(F)F)c(S(=O)(=O)NC2CCCCC2)c1 , is the recorded inhibition at 10 µM at or above 20%?
Result: NOT MET

Query: Hi team, for CCCCNc1ccc(C(=O)O)cc1S(=O)(=O)NC , is the recorded inhibition at 10 µM at or above 20%?
Result: NOT MET

Query: Hi team, for CC(C)(C)CCNc1ccc([N+](=O)[O-])cc1S(N)(=O)=O , is the recorded inhibition at 10 µM at or above 20%?
Result: NOT MET

Query: Hi team, for CN(C)S(=O)(=O)c1cc(C(=O)O)ccc1NCCCCCCCC(F)(F)F , is the recorded inhibition at 10 µM at or above 20%?
Result: MET

Query: Hi team, for CCCCCCCCNc1ccc([N+](=O)[O-])cc1S(N)(=O)=O [Compound 1.8, 5-nitro-2-(octylamino)benzenesulfonamide] , is the recorded inhibition at 10 µM at or above 20%?
Result: NOT MET

Query: Hi team, for NS(=O)(=O)c1cc(C(=O)O)c(O)cc1NCCCCCCCC(F)(F)F , is the recorded inhibition at 10 µM at or above 20%?
Result: MET

Query: Hi team, for CCCCCCCCNc1cc(Cl)c(C(=O)O)cc1S(N)(=O)=O , is the recorded inhibition at 10 µM at or above 20%?
Result: NOT MET

Query: Hi team, for O=C(O)c1ccc(NCCCCCCCC(F)(F)F)c(S(=O)(=O)N2CCCC2)c1 , is the recorded inhibition at 10 µM at or above 20%?
Result: NOT MET
